Listed here: items and their measured Emax.
Biological target: CB1 (mutant) (Homo sapiens)
Sequence (P21554 1-417, change not shown): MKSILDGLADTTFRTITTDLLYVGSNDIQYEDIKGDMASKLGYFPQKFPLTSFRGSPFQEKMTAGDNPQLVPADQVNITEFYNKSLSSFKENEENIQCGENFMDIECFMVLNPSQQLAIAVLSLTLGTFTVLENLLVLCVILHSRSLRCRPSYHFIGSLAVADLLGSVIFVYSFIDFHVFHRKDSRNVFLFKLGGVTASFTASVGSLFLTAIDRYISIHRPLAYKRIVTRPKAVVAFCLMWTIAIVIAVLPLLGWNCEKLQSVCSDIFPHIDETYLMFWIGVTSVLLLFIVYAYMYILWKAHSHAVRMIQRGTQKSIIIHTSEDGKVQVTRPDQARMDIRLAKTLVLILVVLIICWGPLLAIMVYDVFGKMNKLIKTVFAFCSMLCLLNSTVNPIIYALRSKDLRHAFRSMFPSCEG
Experiment: R-SAT functional receptor assay, CB1 (mutant, truncated after amino acid 417)
Format: cell-based
Details: Appendix A; R-SAT CB1; receptor form not stated; relative to SR141716 (100%); read-out: % Inhibition

- MOLECULE: "Cc1csc(CNC(=O)c2ccc3c(c2)N=C(c2ccc(F)cc2)c2ccccc2S3)c1 [drawing 732]"
  Emax: "80%"
- MOLECULE: "O=C(NCCc1ccccn1)c1ccc2c(c1)N=C(c1cccc(Cl)c1)c1ccccc1S2 [drawing 905]"
  Emax: "103%"
- MOLECULE: "CCCNC(=O)c1ccc2c(c1)N=C(c1ccccn1)c1ccccc1S2"
  Emax: "116%"
- MOLECULE: "O=C(NCc1ccccc1)c1ccc2c(c1)N=C(c1ccc(F)cc1)c1ccccc1S2 [drawing 759]"
  Emax: "96%"
- MOLECULE: "O=C(NCCc1cccnc1)c1ccc2c(c1)N=C(c1ccc(Cl)cc1Cl)c1ccccc1S2"
  Emax: "74%"
- MOLECULE: "O=C(NCc1ccc(Cl)cc1Cl)c1ccc2c(c1)N=C(c1ccc(Cl)cc1)c1ccccc1S2 [drawing 901]"
  Emax: "101%"
- MOLECULE: "CCCC1=Nc2cc(C(=O)NCCCN3CCN(c4cc(C)ccc4C)CC3)ccc2Sc2ccccc21"
  Emax: "126%"
- MOLECULE: "CCCCNC(=O)c1ccc2c(c1)N=C(c1ccccc1OC)c1ccccc1S2"
  Emax: "80%"
- MOLECULE: "O=C(NN1CCCC1)c1ccc2c(c1)N=C(c1cccc(Cl)c1)c1ccccc1S2"
  Emax: "85%"

====

Target: CB1 (mutant) (Homo sapiens)
Assay: R-SAT functional receptor assay, CB1 (mutant, truncated after amino acid 417)
Format: cell-based
Settings: Appendix A; R-SAT CB1; receptor form (mutant or wild-type) not stated; read-out: pIC50 (converted)
ASSAY READOUT: log10(IC50) (log10 of the value in nM)

- COMPOUND: "O=C(NCc1ccco1)c1ccc2c(c1)N=C(c1cccc(Cl)c1)c1ccccc1S2 [drawing 583]"
  log10(IC50): 0.50
- COMPOUND: "CCCCN(C)C(=O)c1ccc2c(c1)N=C(c1ccccn1)c1ccccc1S2"
  log10(IC50): 3.00
- COMPOUND: "CC(CNC(=O)c1ccc2c(c1)N=C(c1ccccc1)c1ccccc1S2)c1ccccc1 (stereo not drawn) [drawing 729]"
  log10(IC50): 0.90
- COMPOUND: "CCCCN(C)C(=O)c1ccc2c(c1)N=C(c1ccc(OC)cc1)c1ccccc1S2"
  log10(IC50): 2.00
- COMPOUND: "CCCCNC(=O)c1ccc2c(c1)N=C(c1ccc(Cl)cn1)c1cc(F)ccc1S2 [drawing 560]"
  log10(IC50): 1.70
- COMPOUND: "CCONC(=O)c1ccc2c(c1)N=C(c1ccc(Cl)cc1F)c1ccccc1S2"
  log10(IC50): 2.30
- COMPOUND: "COc1ccccc1C1=Nc2cc(C(=O)NC3CCCCC3)ccc2Sc2ccccc21"
  log10(IC50): 2.50
- COMPOUND: "CCCNC(=O)c1ccc2c(c1)N=C(c1ncccc1C)c1ccccc1S2"
  log10(IC50): 2.70
- COMPOUND: "O=C(NCc1ccc(Cl)cc1Cl)c1ccc2c(c1)N=C(N1CCCCC1)c1ccccc1S2 [drawing 1123]"
  log10(IC50): 1.60
- COMPOUND: "CN(NC(=O)c1ccc2c(c1)N=C(c1ccccc1F)c1ccccc1S2)C1CCCCC1"
  log10(IC50): 2.50
- COMPOUND: "Cc1cccnc1C1=Nc2cc(C(=O)NCCC(C)C)ccc2Sc2ccccc21"
  log10(IC50): 1.80
- COMPOUND: "CC(NC(=O)c1ccc2c(c1)N=C(c1cccc(Cl)c1)c1ccccc1S2)c1ccccc1 (stereo not drawn) [drawing 582]"
  log10(IC50): 1.70
- COMPOUND: "CCCC1=Nc2cc(C(=O)NCCCN3CCC(c4cc(Cl)ccc4C)CC3)ccc2Sc2ccccc21"
  log10(IC50): 2.50
- COMPOUND: "O=C(NN1CCCCCC1)c1ccc2c(c1)N=C(c1ccc(Cl)s1)c1ccccc1S2 [drawing 797]"
  log10(IC50): 1.00
- COMPOUND: "O=C(NCCc1ccc(Cl)cc1)c1ccc2c(c1)N=C(c1ccc(F)cc1)c1ccccc1S2 [drawing 673]"
  log10(IC50): 0.80
- COMPOUND: "O=C(NCCc1cccnc1)c1ccc2c(c1)N=C(c1cccc(Cl)c1)c1ccccc1S2 [drawing 857]"
  log10(IC50): 1.10
- COMPOUND: "O=C(NCc1cccs1)c1ccc2c(c1)N=C(c1ccc(Cl)s1)c1ccccc1S2 [drawing 553]"
  log10(IC50): 0.30
- COMPOUND: "O=C(NCc1cccc(Cl)c1)c1ccc2c(c1)N=C(c1ccc(Cl)cc1)c1ccccc1S2 [drawing 579]"
  log10(IC50): 0.50
- COMPOUND: "CC(C)CC1=Nc2cc(C(=O)NN3CCCCC3)ccc2Sc2ccccc21"
  log10(IC50): 2.30
- COMPOUND: "CC(C)CCNC(=O)c1ccc2c(c1)N=C(c1ccccn1)c1ccccc1S2 [drawing 967]"
  log10(IC50): 1.30
- COMPOUND: "CCCCNC(=O)c1ccc2c(c1)N=C(c1ccc(F)cn1)c1ccccc1S2 [drawing 709]"
  log10(IC50): 0.90
- COMPOUND: "CCCCNC(=O)c1ccc2c(c1)N=C(c1ccc(Br)cn1)c1ccccc1S2 [drawing 807]"
  log10(IC50): 1.00
- COMPOUND: "COc1ccc(C2=Nc3cc(C(=O)NCc4ccncc4)ccc3Sc3ccccc32)cc1 [drawing 728]"
  log10(IC50): 1.90
- COMPOUND: "CCCSCCCNC(=O)c1ccc2c(c1)N=C(CCC)c1ccccc1S2"
  log10(IC50): 3.20
- COMPOUND: "O=C(NN1CCCCC1)c1ccc2c(c1)N=C(c1ccc(Cl)c(Cl)c1)c1ccccc1S2 [drawing 989]"
  log10(IC50): 1.40
- COMPOUND: "O=C(NCCc1cccc(Cl)c1)c1ccc2c(c1)N=C(c1ccccc1F)c1ccccc1S2 [drawing 736]"
  log10(IC50): 1.90
- COMPOUND: "O=C(NN1CCCCC1)c1ccc2c(c1)N=C(c1ccc(Cl)c(F)c1)c1ccccc1S2 [drawing 991]"
  log10(IC50): 1.40
- COMPOUND: "CCCNC(=O)c1ccc2c(c1)N=C(c1ccc(OC)cc1)c1ccccc1S2 [drawing 915]"
  log10(IC50): 1.20
- COMPOUND: "O=C(NCc1ccco1)c1ccc2c(c1)N=C(c1ccc(Cl)cc1)c1ccccc1S2 [drawing 753]"
  log10(IC50): 0.90
- COMPOUND: "O=C(NCc1cccc(Cl)c1)c1ccc2c(c1)N=C(C1CCCCC1)c1ccccc1S2 [drawing 637]"
  log10(IC50): 0.70
- COMPOUND: "O=C(NCc1cccc(Cl)c1)c1ccc2c(c1)N=C(c1cccc(Cl)c1)c1ccccc1S2 [drawing 603]"
  log10(IC50): 0.60
- COMPOUND: "O=C(NCc1ccccn1)c1ccc2c(c1)N=C(c1ccccn1)c1ccccc1S2"
  log10(IC50): 2.50
- COMPOUND: "CCCCCC1=Nc2cc(C(=O)NC3CCN(C(=O)OCC)CC3)ccc2Sc2ccccc21"
  log10(IC50): 2.70
- COMPOUND: "Cc1ccsc1C1=Nc2cc(C(=O)NCCc3cccnc3)ccc2Sc2ccccc21 [drawing 694]"
  log10(IC50): 1.80
- COMPOUND: "CCN(CCNC(=O)c1ccc2c(c1)N=C(c1ccc(F)cc1)c1ccccc1S2)c1ccccc1 [drawing 773]"
  log10(IC50): 1.00
- COMPOUND: "CCCCN(C)C(=O)c1ccc2c(c1)N=C(c1ccccc1F)c1ccccc1S2"
  log10(IC50): 2.40

====

Biological target: native CB1 receptors (Rattus norvegicus, UniProt P20272)
Sequence (P20272 whole entry): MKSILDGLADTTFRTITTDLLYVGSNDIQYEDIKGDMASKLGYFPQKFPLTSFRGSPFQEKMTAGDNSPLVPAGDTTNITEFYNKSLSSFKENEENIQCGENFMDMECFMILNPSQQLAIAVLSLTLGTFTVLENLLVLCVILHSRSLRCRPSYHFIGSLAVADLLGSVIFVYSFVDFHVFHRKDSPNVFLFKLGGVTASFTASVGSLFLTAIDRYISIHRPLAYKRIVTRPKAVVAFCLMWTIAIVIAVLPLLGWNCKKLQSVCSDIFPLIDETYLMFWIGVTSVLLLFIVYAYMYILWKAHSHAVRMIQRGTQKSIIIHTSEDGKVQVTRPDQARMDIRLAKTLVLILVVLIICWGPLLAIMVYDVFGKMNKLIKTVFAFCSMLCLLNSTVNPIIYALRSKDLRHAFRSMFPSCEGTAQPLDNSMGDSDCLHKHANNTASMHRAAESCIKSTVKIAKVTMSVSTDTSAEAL
Assay: CB1 receptor rat binding assay ([3H]SR141716A, rat brain membranes)
Details: rat brain membranes, [3H]SR141716A

- MOLECULE: "CCOCCNC(=O)c1ccc2c(c1)N=C(c1cccc(Br)c1)c1ccccc1S2 [drawing 1323]"
  Binding rat Inh % [%]: 76
- MOLECULE: "O=C(NCCc1cccnc1)c1ccc2c(c1)N=C(c1ccc(Cl)c(Cl)c1)c1ccccc1S2 [drawing 1407]"
  Binding rat Inh % [%]: 103
- MOLECULE: "CCOC(=O)c1ccc(C2=Nc3cc(C(=O)NCc4cccnc4)ccc3Sc3ccccc32)cc1 [drawing 1350]"
  Binding rat Inh % [%]: 90
- MOLECULE: "O=C(NNC(=O)c1ccc2c(c1)N=C(c1cccc(Br)c1)c1ccccc1S2)c1ccccc1"
  Binding rat Inh % [%]: 73

====

Target: native CB1 receptors (Rattus norvegicus, UniProt P20272)
Test: CB1 receptor rat binding assay ([3H]SR141716A, rat brain membranes)
Conditions: rat brain membranes, [3H]SR141716A; read-out: Binding rat pKi (converted)
Flag rule - Ki less than 50 nM flags true; the remaining entries get false.

- COMPOUND: "CCCCNC(=O)c1ccc2c(c1)N=C(c1ccccn1)c1ccccc1S2 [drawing 1527]"
  CATEGORY LABEL: "false"
- COMPOUND: "CC(CNC(=O)c1ccc2c(c1)N=C(C1CCCCC1)c1ccccc1S2)c1ccccc1 (centres unmarked) [drawing 1329]"
  CATEGORY LABEL: "true"
- COMPOUND: "COc1cccc(C2=Nc3cc(C(=O)NC4CCC(F)(F)CC4)ccc3Sc3ccccc32)n1 [drawing 1193]"
  CATEGORY LABEL: "true"
- COMPOUND: "CC(C)NC(=O)c1ccc2c(c1)N=C(c1cccc(F)c1)c1ccccc1S2 [drawing 1528]"
  CATEGORY LABEL: "false"
- COMPOUND: "CCCCNC(=O)c1ccc2c(c1)N=C(c1ccc(Br)cn1)c1ccccc1S2 [drawing 1378]"
  CATEGORY LABEL: "true"
- COMPOUND: "O=C(NCCc1cccnc1)c1ccc2c(c1)N=C(c1cccc(F)c1)c1ccccc1S2 [drawing 1333]"
  CATEGORY LABEL: "true"
- COMPOUND: "O=C(NCc1cccnc1)c1ccc2c(c1)N=C(c1ccc(F)cc1)c1ccccc1S2 [drawing 1541]"
  CATEGORY LABEL: "true"
- COMPOUND: "Cc1ccc(N2CCN(C(=O)c3ccc4c(c3)N=C(c3ccc(Cl)cc3)c3ccccc3S4)CC2)c(C)c1 [drawing 1546]"
  CATEGORY LABEL: "false"
- COMPOUND: "CC(CNC(=O)c1ccc2c(c1)N=C(c1cccc(Cl)c1)c1ccccc1S2)c1ccccc1 (centres unmarked) [drawing 1304]"
  CATEGORY LABEL: "true"
- COMPOUND: "O=C(NNC(=O)c1ccc2c(c1)N=C(c1cccc(Br)c1)c1ccccc1S2)c1ccccc1"
  CATEGORY LABEL: "false"
- COMPOUND: "CCCNC(=O)c1ccc2c(c1)N=C(c1ccc(F)cc1)c1ccccc1S2 [drawing 1262]"
  CATEGORY LABEL: "true"
- COMPOUND: "O=C(c1ccc2c(c1)N=C(c1ccc(F)cc1)c1ccccc1S2)N1CCCCC1 [drawing 1544]"
  CATEGORY LABEL: "false"
- COMPOUND: "O=C(NCc1ccc(F)cc1)c1ccc2c(c1)N=C(c1cccc(Cl)c1)c1ccccc1S2 [drawing 1391]"
  CATEGORY LABEL: "true"
- COMPOUND: "O=C(NCc1ccccc1Br)c1ccc2c(c1)N=C(c1ccc(Cl)cc1)c1ccccc1S2 [drawing 1388]"
  CATEGORY LABEL: "true"
- COMPOUND: "CC(CNC(=O)c1ccc2c(c1)N=C(c1ccc(Cl)cc1)c1cc(F)ccc1S2)c1ccccc1 (centres unmarked) [drawing 1524]"
  CATEGORY LABEL: "true"
- COMPOUND: "O=C(NCCc1cccnc1)c1ccc2c(c1)N=C(c1ccc(Cl)s1)c1ccccc1S2 [drawing 1466]"
  CATEGORY LABEL: "true"
